What follows is a record of IC50 for UniProt:P35968.
Sequence (P35968 20-1356): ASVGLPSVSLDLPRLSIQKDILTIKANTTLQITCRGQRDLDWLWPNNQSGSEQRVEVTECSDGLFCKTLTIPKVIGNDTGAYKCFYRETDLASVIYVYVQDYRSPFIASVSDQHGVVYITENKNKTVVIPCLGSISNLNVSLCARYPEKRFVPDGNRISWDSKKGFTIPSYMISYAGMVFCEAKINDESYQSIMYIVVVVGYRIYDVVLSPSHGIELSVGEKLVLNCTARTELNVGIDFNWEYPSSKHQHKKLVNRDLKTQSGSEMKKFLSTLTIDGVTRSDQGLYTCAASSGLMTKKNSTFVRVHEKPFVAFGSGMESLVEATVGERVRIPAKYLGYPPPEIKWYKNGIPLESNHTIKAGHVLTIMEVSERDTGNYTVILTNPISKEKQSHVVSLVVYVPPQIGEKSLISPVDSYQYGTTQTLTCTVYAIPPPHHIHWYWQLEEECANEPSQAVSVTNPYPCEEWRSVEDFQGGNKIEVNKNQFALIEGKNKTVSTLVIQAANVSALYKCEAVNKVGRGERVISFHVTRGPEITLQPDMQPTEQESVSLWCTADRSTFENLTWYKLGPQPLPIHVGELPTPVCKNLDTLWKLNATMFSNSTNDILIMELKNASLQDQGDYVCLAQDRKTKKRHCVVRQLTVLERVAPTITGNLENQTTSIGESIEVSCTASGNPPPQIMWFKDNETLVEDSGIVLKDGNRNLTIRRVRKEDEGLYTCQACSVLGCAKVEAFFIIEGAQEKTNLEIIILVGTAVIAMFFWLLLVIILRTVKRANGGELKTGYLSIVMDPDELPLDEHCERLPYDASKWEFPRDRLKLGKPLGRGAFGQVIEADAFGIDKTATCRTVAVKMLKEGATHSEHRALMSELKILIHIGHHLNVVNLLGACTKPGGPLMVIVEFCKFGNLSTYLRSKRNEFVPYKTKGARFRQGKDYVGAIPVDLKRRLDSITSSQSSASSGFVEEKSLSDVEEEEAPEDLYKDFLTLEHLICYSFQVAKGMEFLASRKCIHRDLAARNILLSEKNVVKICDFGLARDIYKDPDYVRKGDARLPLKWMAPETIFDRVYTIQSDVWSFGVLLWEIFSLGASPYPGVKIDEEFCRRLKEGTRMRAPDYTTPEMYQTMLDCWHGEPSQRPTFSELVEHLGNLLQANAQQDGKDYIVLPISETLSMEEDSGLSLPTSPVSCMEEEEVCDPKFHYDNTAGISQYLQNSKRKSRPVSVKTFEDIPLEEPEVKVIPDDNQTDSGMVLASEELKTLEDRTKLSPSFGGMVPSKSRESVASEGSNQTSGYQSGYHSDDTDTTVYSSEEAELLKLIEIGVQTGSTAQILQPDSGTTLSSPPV
Outcome Measure: IC50 (µM)

[[record]]
record_smiles = "COc1cc(O)cc2c1OC(=O)c1c(OC)cc(C)c(O)c1C2"
system_under_test = "UniProt:P35968"
outcome_measure = "IC50"
observed_result = 155

[[record]]
record_smiles = "Cc1cc(O)c2c(c1O)Cc1cc(O)cc(O)c1OC2=O"
system_under_test = "UniProt:P35968"
outcome_measure = "IC50"
observed_result = 22

